Target: human recombinant TACE (TNFα converting enzyme) (human) (UniProt P78536)
This listing pairs binders with measured IC50 of inhibition of human TACE activity (SensoLyte 520 TACE fluorimetric kit).
# include the unit after the value

Use the examples below as a reference point.
N‐TIMP3 (13.9 kDa N‐domain; aa 1‐120) (domain or fragment) CTCSPSHPQDAFCNSDIVIRAKVVGKKLVKEGPFGTLVYTIKQMKMYRGFTKMPHVQYIHTEASESLCGLKLEVNKYQYLLTGRVYDGKMYTGLCNFVERWDQLTLSQRKGLNYRYHLGC :: 59 nM
v2‐Fc (TIMP3v2 fused with Fc) (Fc fusion, additional glycosylation site (F34N)) CTCSPSHPQDAFCNSDIVIRASVVGKKLVKEGPNGTLVYTIKQMKMYRGFTKMPHVQYIHTEASESLCGLKLEVNKYQYLLTGRVYDGKMYTGLCNFVERWDQLTLSQRKGLNYRYHLGCNCKIKSCYYLPCFVTSKNECLWTDMLSNFGYPGYQSKHYACIRQKGGYCSWYRGWAPPDKSIINATDP :: 618 nM

**Query** Request the reported IC50 of inhibition of human TACE activity (SensoLyte 520 TACE fluorimetric kit) associated with v82‐Fc (v82 with Fc fused in the C‐terminus) (Fc fusion, additional glycosylation sites) CTCSPSHPQDAFCNSDIVIRAKVVGKKLVKEGPFGTLVYTIKQMKMYRGFTKMPNVTYIHTEASESLCGLNLTVNKYQYLLTGRVYNGTMYTGLCNFVERWDQLTLSQRKGLNYTYHLGCNCKIKSCYYLPCFVTSKNECLWTDMLSNFGYPGYQSKHYACIRQKGGYCSWYRGWAPPDKSIINATDP
**Result** 156 nM
